System: Escherichia coli TOP10
method.notes: shrunken log2 fold change of peptide-encoding DNA abundance (4.5 h post-induction vs induction); higher = less antimicrobial activity (less host growth inhibition)
settings: time post-induction: 4.5 h; library: site-saturation at positions 5, 18, 19, 20
Category scheme (shrunken log2 fold change): band 1 = under -0.06, band 2 = from -0.06 up to 0.1, band 3 = 0.1 and over

Would you please look over these solved cases?
sequence.code | discrete.label
RRIRMRPPRLPRPRPRPIHLPRP | band 1
RRIRQRPPRLPRPRPRPDEGPRP | band 1

Band for the recorded shrunken log2 fold change of `RRIRKRPPRLPRPRPRPGKCPRP` ?
band 2

Band for the recorded shrunken log2 fold change of `RRIRWRPPRLPRPRPRPLLCPRP` ?
band 3

Band for the recorded shrunken log2 fold change of `RRIRKRPPRLPRPRPRPVFGPRP` ?
band 3

* * *

System: Escherichia coli TOP10;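 further: peptides expressed intracellularly from a pBAD plasmid library in pooled LB shake-flask culture, induced with 0.3% L-arabinose, DNA abundance read by NGS, three biological replicates, DESeq2 with apeglm shrinkage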
method.notes: shrunken log2 fold change of peptide-encoding DNA abundance (4.5 h post-induction vs induction); higher = less antimicrobial activity (less host growth inhibition)
settings: time post-induction: 4.5 h; library: site-saturation at positions 5, 18, 19, 20
measurement.name: shrunken log2 fold change

Below: 8 sequences and their reported shrunken log2 fold change.
sequence.code | shrunken log2 fold change
RRIRLRPPRLPRPRPRPAWCPRP | 0.094
RRIRCRPPRLPRPRPRPKNNPRP | -0.188
RRIRCRPPRLPRPRPRPQSCPRP | 0.0547
RRIRTRPPRLPRPRPRPYHWPRP | -0.675
RRIRVRPPRLPRPRPRPKKLPRP | -0.0765
RRIRDRPPRLPRPRPRPGICPRP | -0.0538
RRIRPRPPRLPRPRPRPEWSPRP | -0.0838
RRIRARPPRLPRPRPRPWEDPRP | -0.015

Provide reported shrunken log2 fold change for each item, in the same order as listed.
1. RRIRCRPPRLPRPRPRPCIYPRP
2. RRIRYRPPRLPRPRPRPENNPRP
3. RRIRMRPPRLPRPRPRPSDPPRP
4. RRIRRRPPRLPRPRPRPMFDPRP
5. RRIRFRPPRLPRPRPRPQWQPRP

-0.253
-0.572
-0.0636
0.195
-0.08

Provide reported shrunken log2 fold change for each item, in the same order as listed.
1. RRIRLRPPRLPRPRPRPMHEPRP
2. RRIRSRPPRLPRPRPRPGSFPRP
3. RRIRVRPPRLPRPRPRPCLQPRP
4. RRIRERPPRLPRPRPRPPKQPRP
5. RRIRWRPPRLPRPRPRPHHVPRP

[-0.0688, 0.209, -0.421, 0.0175, -0.108]

Provide reported shrunken log2 fold change for each item, in the same order as listed.
1. RRIRNRPPRLPRPRPRPRYIPRP
2. RRIRNRPPRLPRPRPRPWRQPRP
3. RRIRHRPPRLPRPRPRPWAIPRP
4. RRIRQRPPRLPRPRPRPMEYPRP

-0.455
-0.0337
0.112
-0.479

Provide reported shrunken log2 fold change for each item, in the same order as listed.
1. RRIRERPPRLPRPRPRPHHIPRP
2. RRIRCRPPRLPRPRPRPAKLPRP

1. -0.0669
2. 0.0355

Provide reported shrunken log2 fold change for each item, in the same order as listed.
1. RRIRTRPPRLPRPRPRPVPHPRP
2. RRIRWRPPRLPRPRPRPNRTPRP
3. RRIRRRPPRLPRPRPRPVKPPRP
4. RRIRYRPPRLPRPRPRPHQAPRP
5. RRIRWRPPRLPRPRPRPEMIPRP
6. RRIRHRPPRLPRPRPRPWVWPRP

[-0.0291, 0.121, 0.265, -0.0296, 0.0062, 0.296]

Provide reported shrunken log2 fold change for each item, in the same order as listed.
1. RRIRFRPPRLPRPRPRPFEIPRP
2. RRIRDRPPRLPRPRPRPLYTPRP
3. RRIRARPPRLPRPRPRPREEPRP

[-0.0265, -0.181, 0.579]

Provide reported shrunken log2 fold change for each item, in the same order as listed.
1. RRIRHRPPRLPRPRPRPGAAPRP
2. RRIRERPPRLPRPRPRPMNIPRP
3. RRIRMRPPRLPRPRPRPSRVPRP
4. RRIRWRPPRLPRPRPRPYILPRP

[0.324, -0.847, 0.885, -0.849]

Provide reported shrunken log2 fold change for each item, in the same order as listed.
1. RRIRPRPPRLPRPRPRPMCWPRP
2. RRIRMRPPRLPRPRPRPITQPRP
3. RRIRTRPPRLPRPRPRPGELPRP

1. 0.156
2. -0.00846
3. -0.108
